- Target of assay: farnesyl-protein transferase (FPTase) (Homo sapiens, UniProt P49354+P49356)
- Experimental protocol: in vitro FPTase inhibition, K-Ras as substrate for farnesylation
- Format: biochemical
- Condition parameters: K-Ras used as substrate for farnesylation
Reported metric: IC50

Incoming: Given the entry c1cc2c3c(cccc3c1)N(CCCN1C(=NCCCn3ccnc3)c3cccc4cccc1c34)C2=NCCCn1ccnc1 , report its measured IC50.
Outgoing: > 10 µM

Incoming: Suppose we examine the compound COc1cccc(CN2C(=NCCCn3ccnc3)c3cccc4cccc2c34)c1 ; what IC50 value has been reported?
Outgoing: > 10 µM

Incoming: # query: IC50 of entry c1cncc(CN2C(=NCCCn3ccnc3)c3cccc4cccc2c34)c1
Outgoing: > 10 µM

Incoming: Fill blank: measured IC50 of the compound c1ccc(N2C(=NCCCn3ccnc3)c3cccc4cccc2c34)cc1 is ____.
Outgoing: > 10 µM

New cases:
Incoming: Returns the measured IC50 for the input compound. Input: Clc1ccc2c3c(cccc13)C(=NCCc1cccnc1)N2Cc1ccccc1
Outgoing: > 10 µM

* * *

- Target of assay: farnesyl-protein transferase (FPTase) (Homo sapiens, UniProt P49354+P49356)
- Experimental protocol: in vitro FPTase inhibition, H-Ras as substrate for farnesylation
- Format: biochemical
- Condition parameters: H-Ras used as substrate for farnesylation
With a cut-off of 400 nM, any IC50 strictly below it is called True; any IC50 meeting it or above is called False.

Use these answered entries as a reference point.
Incoming: Given Clc1ccc2c3c(cccc13)C(=NCCc1cccnc1)N2Cc1ccccc1 , is recorded IC50 strictly lower than 400 nM?
Outgoing: True

Incoming: Hello, is IC50 of the following compound strictly smaller than 400 nM? Ic1ccc2c3c(cccc13)C(NCCCCn1ccnc1)=N2
Outgoing: False

Incoming: Problem: For the compound Clc1ccc2c3c(cccc13)C(=NCCCn1ccnc1)N2Cc1ccccc1 , is IC50 under 400 nM?
Outgoing: False

Incoming: Lab note: confirm whether the reported IC50 for this compound is below 400 nM, equality not counting. compound: CCCCCCN1C(=NCCCn2ccnc2)c2cccc3cccc1c23
Outgoing: False

Incoming: # check: IC50 < 400 nM for FC(F)(F)c1cccc(CN2C(=NCCCn3ccnc3)c3cccc4cccc2c34)c1
Outgoing: True

Incoming: Below 400 nM on IC50? Entry N#CCCCCN1C(=NCCCn2ccnc2)c2cccc3cccc1c23
Outgoing: True

Incoming: Here's an entry: c1ccc(CN2C(=NCCCn3ccnc3)c3cccc4cccc2c34)cc1 . Is its IC50 below 400 nM?
Outgoing: False

Others:
Incoming: State whether 400 nM exceeds IC50 recorded for c1ccc(CN2C(=NCCCCn3ccnc3)c3cccc4cccc2c34)cc1 .
Outgoing: False
